Reference source: patent US20230416248A1

# target_or_system: BRM (Homo sapiens, UniProt P51531)
# Construct: made in house; host or cells: High Five insect cells
# Sequence (P51531 whole entry): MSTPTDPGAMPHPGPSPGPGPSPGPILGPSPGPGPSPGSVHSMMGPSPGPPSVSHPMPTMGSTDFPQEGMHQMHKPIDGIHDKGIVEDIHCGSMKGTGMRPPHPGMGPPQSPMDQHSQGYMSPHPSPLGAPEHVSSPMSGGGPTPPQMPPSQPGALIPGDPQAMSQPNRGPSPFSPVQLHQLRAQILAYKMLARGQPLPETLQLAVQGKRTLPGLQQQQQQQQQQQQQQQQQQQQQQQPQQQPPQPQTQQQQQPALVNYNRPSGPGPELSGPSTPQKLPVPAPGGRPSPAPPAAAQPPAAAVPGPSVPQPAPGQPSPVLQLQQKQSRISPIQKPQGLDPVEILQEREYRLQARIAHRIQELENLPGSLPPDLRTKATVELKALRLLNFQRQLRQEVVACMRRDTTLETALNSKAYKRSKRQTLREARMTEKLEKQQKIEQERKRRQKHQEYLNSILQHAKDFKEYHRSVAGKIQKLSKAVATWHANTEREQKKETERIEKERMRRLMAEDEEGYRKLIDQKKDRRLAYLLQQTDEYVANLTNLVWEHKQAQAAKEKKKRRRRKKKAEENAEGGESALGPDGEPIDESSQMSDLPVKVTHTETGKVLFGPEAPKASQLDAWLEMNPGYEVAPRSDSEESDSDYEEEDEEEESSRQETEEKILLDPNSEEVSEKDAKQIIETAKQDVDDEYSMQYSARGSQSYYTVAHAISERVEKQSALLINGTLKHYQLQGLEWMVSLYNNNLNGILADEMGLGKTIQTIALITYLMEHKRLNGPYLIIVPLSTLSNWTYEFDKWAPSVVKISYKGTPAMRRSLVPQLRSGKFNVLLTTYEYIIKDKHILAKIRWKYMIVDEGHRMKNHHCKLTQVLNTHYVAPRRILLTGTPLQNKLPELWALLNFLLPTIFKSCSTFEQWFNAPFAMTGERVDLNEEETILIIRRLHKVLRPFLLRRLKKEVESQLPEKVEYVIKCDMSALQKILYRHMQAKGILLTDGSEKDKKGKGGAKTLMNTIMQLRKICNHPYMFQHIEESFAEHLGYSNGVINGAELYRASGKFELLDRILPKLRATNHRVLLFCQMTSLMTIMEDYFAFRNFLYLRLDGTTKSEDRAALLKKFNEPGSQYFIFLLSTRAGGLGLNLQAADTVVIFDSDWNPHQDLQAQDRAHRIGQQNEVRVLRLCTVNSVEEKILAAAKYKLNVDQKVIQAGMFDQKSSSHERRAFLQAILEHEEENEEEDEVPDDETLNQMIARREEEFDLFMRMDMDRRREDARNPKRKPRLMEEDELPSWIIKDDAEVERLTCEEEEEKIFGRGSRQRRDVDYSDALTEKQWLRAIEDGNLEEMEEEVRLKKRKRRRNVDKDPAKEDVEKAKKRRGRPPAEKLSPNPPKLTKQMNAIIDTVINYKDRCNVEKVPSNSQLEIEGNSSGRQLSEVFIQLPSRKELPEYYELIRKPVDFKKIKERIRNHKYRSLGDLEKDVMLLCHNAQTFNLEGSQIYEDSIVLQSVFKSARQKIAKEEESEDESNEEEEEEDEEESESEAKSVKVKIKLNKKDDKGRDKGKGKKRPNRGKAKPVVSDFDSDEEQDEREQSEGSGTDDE
# protocol_summary: ATPase catalytic activity of BRM, ADP-Glo in vitro biochemical assay
# run_parameters: ratio of BRG1 IC50 to BRM IC50
Criterion: Ratio* strictly under 5. Met: 1 (yes). Not met: 0 (no).

{"compound": "CC(F)(F)c1ccc2c(n1)N(c1ccc3cnc(CNC(=O)c4ccc5c(c4)S(=O)(=O)CCOC5)cc3n1)CCO2", "assigned_category": "0 (no)"}
{"compound": "Cn1ncc2c1CCCN2c1ccc2cnc(CNC(=O)c3ccc4c(c3)S(=O)(=O)CCOC4)cc2n1", "assigned_category": "0 (no)"}
{"compound": "C[C@@H]1CN(c2cccc(-c3ccc4cnc(CNC(=O)c5cnc6c(c5)S(=O)(=O)CCCC6(F)F)cc4n3)n2)C[C@H](C)O1", "assigned_category": "1 (yes)"}

Regarding `C[C@@]1(F)CCCN(c2cccc(-c3ccc4cnc(CNC(=O)c5ccc6c(c5)S(=O)(=O)CCOC6)cc4n3)n2)C1` , kindly confirm whether its Ratio* is beneath 5.
0 (no)

Confirm or reject: Ratio* of `O=C(NCc1cc2nc(N3CCOc4ccc(C5CC5)cc43)ccc2cn1)c1ccc2c(c1)S(=O)(=O)CCOC2` lies strictly below 5
0 (no)

Here's an entry: CC1CN(c2ccc3cnc(CNC(=O)c4ccc5c(c4)S(=O)(=O)CCOC5)cc3n2)c2ncccc2N1C (stereo not shown) . Is its Ratio* below 5?
0 (no)

Hello, is Ratio* of the following compound strictly smaller than 5? `COC[C@H]1CCCN(c2cccc(-c3ccc4cnc(CNC(=O)c5ccc6c(c5)S(=O)(=O)CCOC6)cc4n3)n2)C1`
1 (yes)

====

Each entry below carries its recorded IC50.
# target_or_system: BRG-1 (Homo sapiens, UniProt P51532)
# Construct: made in house; host or cells: High Five insect cells
# Sequence (P51532 whole entry): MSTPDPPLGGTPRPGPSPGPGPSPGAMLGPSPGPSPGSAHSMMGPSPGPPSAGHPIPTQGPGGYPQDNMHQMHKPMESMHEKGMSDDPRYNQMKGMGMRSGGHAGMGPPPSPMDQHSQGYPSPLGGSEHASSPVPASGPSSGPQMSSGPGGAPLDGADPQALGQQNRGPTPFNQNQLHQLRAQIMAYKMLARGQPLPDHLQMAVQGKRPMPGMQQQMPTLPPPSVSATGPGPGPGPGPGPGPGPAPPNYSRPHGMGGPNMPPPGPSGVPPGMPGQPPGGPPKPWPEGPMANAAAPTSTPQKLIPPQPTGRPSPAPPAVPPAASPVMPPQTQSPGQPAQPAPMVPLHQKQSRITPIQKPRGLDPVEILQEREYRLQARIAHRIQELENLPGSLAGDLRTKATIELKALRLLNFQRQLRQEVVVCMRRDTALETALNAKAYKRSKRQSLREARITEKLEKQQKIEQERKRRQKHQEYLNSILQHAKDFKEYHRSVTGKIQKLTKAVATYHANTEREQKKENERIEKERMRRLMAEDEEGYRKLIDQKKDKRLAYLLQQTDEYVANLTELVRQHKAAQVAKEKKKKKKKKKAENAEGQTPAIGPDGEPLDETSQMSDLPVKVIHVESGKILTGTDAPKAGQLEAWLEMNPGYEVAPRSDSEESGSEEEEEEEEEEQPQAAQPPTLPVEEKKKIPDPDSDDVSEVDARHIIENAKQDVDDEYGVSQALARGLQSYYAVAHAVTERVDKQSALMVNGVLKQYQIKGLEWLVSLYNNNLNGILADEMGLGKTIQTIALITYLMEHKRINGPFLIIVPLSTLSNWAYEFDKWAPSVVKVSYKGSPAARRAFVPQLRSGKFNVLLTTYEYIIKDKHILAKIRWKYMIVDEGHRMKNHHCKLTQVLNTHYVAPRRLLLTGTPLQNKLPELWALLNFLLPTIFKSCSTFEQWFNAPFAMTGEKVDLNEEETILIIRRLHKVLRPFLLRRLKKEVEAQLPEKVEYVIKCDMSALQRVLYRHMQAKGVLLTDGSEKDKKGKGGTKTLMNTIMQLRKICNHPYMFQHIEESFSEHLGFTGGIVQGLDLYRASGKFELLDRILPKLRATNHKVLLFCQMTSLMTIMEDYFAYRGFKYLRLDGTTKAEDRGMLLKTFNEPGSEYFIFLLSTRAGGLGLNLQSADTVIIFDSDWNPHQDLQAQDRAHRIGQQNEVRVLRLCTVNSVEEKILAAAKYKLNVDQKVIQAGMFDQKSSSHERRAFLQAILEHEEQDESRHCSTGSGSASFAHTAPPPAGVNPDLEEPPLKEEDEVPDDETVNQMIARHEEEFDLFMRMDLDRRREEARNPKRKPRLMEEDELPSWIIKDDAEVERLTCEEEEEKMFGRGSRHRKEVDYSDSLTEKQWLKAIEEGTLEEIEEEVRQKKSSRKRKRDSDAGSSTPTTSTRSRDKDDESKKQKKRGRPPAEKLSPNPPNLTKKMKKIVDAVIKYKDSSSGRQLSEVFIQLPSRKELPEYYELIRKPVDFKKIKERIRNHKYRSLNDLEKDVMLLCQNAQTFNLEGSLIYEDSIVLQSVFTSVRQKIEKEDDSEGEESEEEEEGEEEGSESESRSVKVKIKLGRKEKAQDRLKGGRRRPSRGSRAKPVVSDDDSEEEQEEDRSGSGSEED
# protocol_summary: ATPase catalytic activity of BRG-1, ADP-Glo in vitro biochemical assay
# run_parameters: ATPase catalytic activity, ADP-Glo; 30 nM BRG-1, 400 μM ATP; read-out: BRG1 IC50
# Protocol: The ATPase catalytic activity of BRM or BRG-1 was measured by an in vitro biochemical assay using ADP-Glo™ (Promega, V9102). The ADP-Glo™ kinase assay is performed in two steps once the reaction is complete. The first step is to deplete any unconsumed ATP in the reaction. The second step is to convert the reaction product ADP to ATP, which will be utilized by the luciferase to generate luminesce and be detected by a luminescence reader, such as Envision. […]

{"compound": "COCc1ccc2c(c1)N(c1ccc3cnc(CNC(=O)c4ccc5c(c4)S(=O)(=O)CCOC5)cc3n1)CCC2 [Compound 605]", "IC50": "187 nM"}
{"compound": "CC1COCc2ccc(C(=O)NCc3cc4nc(-c5cccc(N6C[C@@H](C)O[C@@H](C)C6)n5)ccc4cn3)cc2S1(=O)=O (stereo partly shown) [Compound 319]", "IC50": "329 nM"}
{"compound": "C[C@@H]1CN(c2cccc(-c3ccc4cnc(CNC(=O)c5cnc6c(c5)S(=O)(=O)CCCCC6)cc4n3)n2)C[C@H](C)O1 [Compound 451]", "IC50": "8 nM"}
{"compound": "O=C(NCc1cc2nc(-c3cccc(OCC4CC4)n3)ccc2cn1)c1ccc2c(c1)S(=O)(=O)CCOC2 [Compound 381]", "IC50": "241 nM"}

The observed IC50 for C[C@@H]1CN(c2cccc(-c3ccc4cnc(CNC(=O)c5cc(C(F)F)c6c(c5)S(=O)(=O)CCOC6)cc4n3)n2)C[C@H](C)O1 [Compound 355] when tested with BRG-1 (Homo sapiens, UniProt P51532) stands at 63.9 nM

Form field, IC50 with BRG-1 (Homo sapiens, UniProt P51532), item C[C@H]1COCc2ncc(C(=O)NCc3cc4nc(-c5cccc(C6CC6)n5)ccc4cn3)cc2S1(=O)=O [Compound 452] : 958 nM

BRG-1 (Homo sapiens, UniProt P51532) IC50 of COCCOc1cc(C(F)F)ccc1-c1ccc2cnc(CNC(=O)c3ccc4c(c3)S(=O)(=O)CCOC4)cc2n1 [Compound 366] is 2960 nM

The compound C[C@@H]1CN(c2cccc(-c3ccc4cnc(CNC(=O)c5ccc6c(c5)S(=O)(=O)CC[C@@H]6C)cc4n3)n2)C[C@H](C)O1 [Compound 483] , when measured on BRG-1 (Homo sapiens, UniProt P51532), yielded IC50 of 1230 nM

The compound C[C@@H]1CN(c2cccc(-c3ccc4cnc(CNC(=O)c5cnc6c(c5)S(=O)(=O)[C@@H](C)CCC6)cc4n3)n2)C[C@H](C)O1 [Compound 509] , when measured on BRG-1 (Homo sapiens, UniProt P51532), yielded IC50 of 26.9 nM
